Data provenance is patent US4032525A.

- test-method-notes: in vivo
- measurement-parameters: mouse, po
For each record, write down the corresponding LD50 at 24 h.

compound	LD50 at 24 h
O=C1OCCN1CCN1CCN(C2Cc3cc(Cl)ccc3Oc3ccc(F)cc32)CC1 (centres unmarked)	900 mg/kg
Cc1ccc2c(c1)CC(N1CCN(CCN3CCOC3=O)CC1)c1cc(C)ccc1O2 (centres unmarked)	750 mg/kg
Cc1ccc2c(c1)CC(N1CCN(CCN3CCOC3=O)CC1)c1cc(F)ccc1O2 (centres unmarked)	450 mg/kg

For the 5 compounds below, give their LD50 at 24 h values.
1. OCCCN1CCN(C2Cc3cc(Cl)ccc3Oc3ccccc32)CC1 (centres unmarked)
2. Cc1ccc2c(c1)CC(N1CCN(C)CC1)c1cc(C)ccc1O2 (centres unmarked)
3. N#CCCN1CCN(C2Cc3cc(Cl)ccc3Oc3ccccc32)CC1 (centres unmarked)
4. O=C1OCCN1CCN1CCN(C2Cc3cc(Cl)ccc3Oc3ccccc32)CC1 (centres unmarked)
5. O=C1OCCN1CCN1CCN(C2Cc3cc(Cl)ccc3Oc3ccc(Cl)cc32)CC1 (centres unmarked)

1. 375 mg/kg
2. 900 mg/kg
3. 1500 mg/kg
4. 450 mg/kg
5. 900 mg/kg
